target: cloned human or rodent CNS receptors, channels, and transporters (PDSP panel) (Homo sapiens, UniProt P35372); construct: expressed in transfected cells; assay: PDSP GPCR panel primary binding assays at 10 μM; conditions: Receptor MOR; primary assay, 10 μM
Sequence (P35372 whole entry): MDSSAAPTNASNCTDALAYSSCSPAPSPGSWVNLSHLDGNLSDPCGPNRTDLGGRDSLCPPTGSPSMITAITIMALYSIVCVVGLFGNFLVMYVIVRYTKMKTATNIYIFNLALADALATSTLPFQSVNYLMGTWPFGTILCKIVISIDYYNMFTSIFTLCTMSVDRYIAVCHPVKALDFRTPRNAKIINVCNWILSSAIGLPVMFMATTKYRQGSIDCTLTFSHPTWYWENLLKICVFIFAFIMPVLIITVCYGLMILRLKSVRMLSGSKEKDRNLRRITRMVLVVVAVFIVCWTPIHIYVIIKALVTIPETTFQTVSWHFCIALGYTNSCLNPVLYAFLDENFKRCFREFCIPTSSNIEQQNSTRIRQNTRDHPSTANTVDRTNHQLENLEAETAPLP
Each entry below carries its recorded Inhibition 2.
Answer format: numeric, % implied, no suffix.

Field: example entries. Status: answers known.
compound="c1cn2cc(-c3ccc4cn[nH]c4c3)nc(Nc3ccc(N4CCOCC4)cc3)c2n1 [UNC10302678A, Entospletinib (GS-9973)]" measurement_unit=% result_value=12.23
compound="Cl.NC(=O)c1cnc(N[C@@H]2CCCC[C@@H]2N)nc1Nc1cccc(-n2nccn2)c1 [UNC10302682A, P505-15 (PRT06207 HCl)]" measurement_unit=% result_value=20.29
compound="O=c1oc2ccccc2cc1-c1cn2cc(Cc3ccc(F)cc3)sc2n1 [UNC10302680A, iMDK]" measurement_unit=% result_value=9.93

If you can, please state the reported Inhibition 2 value of CCCCNc1ncc2c(-c3ccc(CN4CCN(C)CC4)cc3)cn([C@H]3CC[C@H](O)CC3)c2n1 [UNC2025C, UNC2025] . 12.91

###

molecular target: cloned human or rodent CNS receptors, channels, and transporters (PDSP panel) (Homo sapiens); construct: expressed in transfected cells; assay: PDSP GPCR panel primary binding assays at 10 μM; details: Receptor Alpha1D; primary assay, 10 μM
ENDPOINT NAME: Inhibition 1 (%)
Answer format: numeric, % implied, no suffix.

Field: example entries. Status: answers known.
compound="c1cn2cc(-c3ccc4cn[nH]c4c3)nc(Nc3ccc(N4CCOCC4)cc3)c2n1 [UNC10302678A, Entospletinib (GS-9973)]" result_value=-9.56
compound="O=c1oc2ccccc2cc1-c1cn2cc(Cc3ccc(F)cc3)sc2n1 [UNC10302680A, iMDK]" result_value=-7.71
compound="CCCCNc1ncc2c(-c3ccc(CN4CCN(C)CC4)cc3)cn([C@H]3CC[C@H](O)CC3)c2n1 [UNC2025C, UNC2025]" result_value=50.98

Then there is this compound:
If you can, please state the reported Inhibition 1 value of Cl.NC(=O)c1cnc(N[C@@H]2CCCC[C@@H]2N)nc1Nc1cccc(-n2nccn2)c1 [UNC10302682A, P505-15 (PRT06207 HCl)] . 22.56

###

molecular target: 5-HT2A receptor (Homo sapiens); construct: expressed in transfected cells; assay: PDSP secondary binding, 5-HT2A; parameters: species or system human or rodent; details: Receptor 5-HT2A; secondary assay, run 2; read-out: Ki (nM) 2
Sequence (P28223 whole entry): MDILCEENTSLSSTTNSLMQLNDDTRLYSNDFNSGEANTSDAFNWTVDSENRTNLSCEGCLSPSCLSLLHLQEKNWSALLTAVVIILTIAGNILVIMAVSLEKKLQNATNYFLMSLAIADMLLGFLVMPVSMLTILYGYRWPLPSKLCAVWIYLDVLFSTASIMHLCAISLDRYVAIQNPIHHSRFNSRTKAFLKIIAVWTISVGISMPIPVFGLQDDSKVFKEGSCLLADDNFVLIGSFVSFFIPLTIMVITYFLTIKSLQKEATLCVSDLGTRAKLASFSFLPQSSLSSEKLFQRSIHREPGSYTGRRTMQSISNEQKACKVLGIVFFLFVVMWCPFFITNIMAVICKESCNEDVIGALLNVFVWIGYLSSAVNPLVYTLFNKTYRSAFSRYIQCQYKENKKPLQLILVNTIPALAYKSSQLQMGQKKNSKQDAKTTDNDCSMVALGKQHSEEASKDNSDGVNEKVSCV
ENDPOINT NAME: Ki (nM)
Answer format: numeric, nM implied, no suffix.

If you can, please state the reported Ki value of CCCCNc1ncc2c(-c3ccc(CN4CCN(C)CC4)cc3)cn([C@H]3CC[C@H](O)CC3)c2n1 [UNC2025C, UNC2025] . 462

###

test system: cloned human or rodent CNS receptors, channels, and transporters (PDSP panel); experiment: PDSP GPCR panel primary binding assays at 10 μM; conditions: Sigma 1; primary assay, mean inhibition
Each entry below carries its recorded Mean %.
Answer format: numeric, % implied, no suffix.

Field: example entries. Status: answers known.
compound="O=C(NC1CC1)C(=O)C(Cc1ccccc1)NC(=O)[C@H]1CCC(=O)N1Cc1ccccc1 (stereo partly shown) [UNC10302676A, ABT-957 (Alicapistat)]" subject_of_test="cloned human or rodent CNS receptors, channels, and transporters (PDSP panel)" result_value=-2.52
compound="CC(=O)N1CCC(NC(=O)NC23CC4CC(CC(C4)C2)C3)CC1 [UNC10302683A, AR9281]" subject_of_test="cloned human or rodent CNS receptors, channels, and transporters (PDSP panel)" result_value=8.41
compound="CCC(=O)N1CCC(NC(=O)Nc2ccc(OC(F)(F)F)cc2)CC1 [UNC10302681A, TPPU]" subject_of_test="cloned human or rodent CNS receptors, channels, and transporters (PDSP panel)" result_value=19.57

Then there is this compound:
If you can, please state the reported Mean % value of CNc1nc(C)nc(N[C@H]2CCC[C@@H](C(=O)NCc3ccc(C#N)cc3C(F)(F)F)C2)n1 [UNC10302679A, GSK2256294A] . 4.17
